Could you please report measured pIC50 for the items listed next?
Molecular target: T1, human PVRIG-his (AcroBiosystems, Cat NO. PVG-H52H4) (human, UniProt Q6DKI7 41-171, limits assumed)
T1 construct: also called human PVRIG protein
T1 sequence (looked up): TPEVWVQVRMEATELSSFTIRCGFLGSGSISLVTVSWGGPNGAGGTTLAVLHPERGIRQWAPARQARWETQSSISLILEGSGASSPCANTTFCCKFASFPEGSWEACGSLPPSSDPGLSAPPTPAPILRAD
Assay: competition ELISA, PVRIG-His coated, competitor human PVRL2-mFc
pIC50 here: minus log base 10 of the concentration, concentration in moles per litre.

# pIC50 lookup, item PVRIG-A50-H1d (Fc fusion, humanized variant of PVRIG-A50; also called A50.VH1d; not shown: constant part not restated for the humanized forms; parents are VHH-hinge-CH2-CH3 of human IgG1; detected by anti-human) EVQLVESGGGLVQPGGSLRLSCAASGFTFSYYDMSWVRQAPGKGLEWVSTINSNGGRTSYVDSVKGRFTISRDNSKNTLYLQMNSLRAEDTAVYYCVEGDPHNFGLESLSLRDFGSWGQGTMVTVSS 8.99

// returns reported pIC50 for input PVRIG-A118-H7 (Fc fusion, humanized variant of PVRIG-A118; also called A118.VH7; not shown: constant part not restated for the humanized forms; parents are VHH-hinge-CH2-CH3 of human IgG1; detected by anti-human) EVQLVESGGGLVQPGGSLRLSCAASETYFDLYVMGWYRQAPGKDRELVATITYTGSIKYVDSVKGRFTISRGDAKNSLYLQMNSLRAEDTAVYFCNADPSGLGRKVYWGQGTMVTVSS 9.37

Reported pIC50 for PVRIG-A105-H5 (Fc fusion, humanized variant of PVRIG-A105; also called A105.VH5; not shown: constant part not restated for the humanized forms; parents are VHH-hinge-CH2-CH3 of human IgG1; detected by anti-human) EVQLVESGGGLVQPGGSLRLSCAASGRTFDRHTMTWFRQAPGKEREFVATASRIPGDTYYVDSVKGRFTISRDNAKNSLYLQMNSLRAEDTAVYYCAATSAYCSEVDCYEKGSWYDNWGQGIQVTVSS : what is it? 9.19

If you can, please state the reported pIC50 value of PVRIG-A118-H6 (Fc fusion, humanized variant of PVRIG-A118; also called A118.VH6; not shown: constant part not restated for the humanized forms; parents are VHH-hinge-CH2-CH3 of human IgG1; detected by anti-human) EVQLVESGGGLVQPGGSLRLSCAASETYFDLYVMGWYRQAPGKDRELVATITYTGSIKIVDSVKGRFTISRGDAKNSLYLQMNSLRAEDTAVYYCNADPSGLGRKVYWGQGTMVTVSS . 9.37
